# credit: the supplement of paper PMC10567573

- measurement description: protein stability index of a GFP-peptide fusion (GPS, HEK-293T) (PSI 1-6); higher = more stable;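 further: 24-mer peptide tiles fused after GFP, lentivirally expressed, FACS-sorted into six equal bins by GFP/DsRed ratio, decoded by Illumina sequencing, PSI is the read-weighted mean bin number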
- condition details: treatment: MLN4924 1 uM, 8 h; c terminus: a fixed tail appended
Exercise: for every item that follows, state its recorded protein stability index.
# print the numeric value only

[in] Let me know recorded protein stability index for SGRHPSHSTTPSGPGDEVARGIAG [ARFIP2] , thanks.
[out] 4.62

[in] Let me know recorded protein stability index for TPLPETGYWRVRLWNGDKYAATTT [TRIM39] , thanks.
[out] 2.37

[in] Let me know recorded protein stability index for LGLLDDYLEVAKHFKPHGFSSDKA [ATF4] , thanks.
[out] 3.07

[in] Let me know recorded protein stability index for FTQPLLPAFTVWCGSFQVTTGLQV [FSD1] , thanks.
[out] 3.03

[in] Let me know recorded protein stability index for DPYLSYRWKRRRSYSREHEGRLRY [CLK3] , thanks.
[out] 3.57

[in] Let me know recorded protein stability index for VDLVDESGYVSGYKHAGTYDQKVQ [TPPP] , thanks.
[out] 4.01

[in] Let me know recorded protein stability index for KRRKDSEEEAASPEGKRVPKRLRC [FANCE] , thanks.
[out] 5.12

[in] Let me know recorded protein stability index for LVKHWYQNCKKKLGKLPPQYALEL [OAS1] , thanks.
[out] 2.51

[in] Let me know recorded protein stability index for PQDGSYPRQADHDDHECCERVVIN [KCNA1] , thanks.
[out] 5.18

[in] Let me know recorded protein stability index for GALETRSLKDHKVSFLRSGTKLIF [C2CD2L] , thanks.
[out] 2.1

[in] Let me know recorded protein stability index for GPVAGLDDSGGPTPSSYAPSHPPR [ZBTB22] , thanks.
[out] 4.79

---

- measurement description: protein stability index of a GFP-peptide fusion (GPS, HEK-293T) (PSI 1-6); higher = more stable
- condition details: treatment: DMSO; c terminus: a fixed tail appended
Exercise: for every item that follows, state its recorded protein stability index.
# print the numeric value only

[in] Let me know recorded protein stability index for NGEYTLMPSPTDVVLPGAVSLRYS [ADAMTS4] , thanks.
[out] 3.23

[in] Let me know recorded protein stability index for AGNRNSMVIHIPEEPRPSRPRYKA [KCNK9] , thanks.
[out] 4.14

[in] Let me know recorded protein stability index for PHLMPSNCGLEEKIANLGSCNDSK [S100A14] , thanks.
[out] 2.61

[in] Let me know recorded protein stability index for LKASEPGLFAVGEHTGEVRTARAL [PCDHGA10] , thanks.
[out] 4.06

[in] Let me know recorded protein stability index for VDFTFVENVVHGHILAAEQLSRDS [NSDHL] , thanks.
[out] 2.37

[in] Let me know recorded protein stability index for KPENISLRNKLRELCVKLMFLHPV [SMG5] , thanks.
[out] 2.9

[in] Let me know recorded protein stability index for AAEQAERSQSSIVPEEEQAANKGE [SMARCE1] , thanks.
[out] 5.51

---

- measurement description: protein stability index of a GFP-peptide fusion (GPS, HEK-293T) (PSI 1-6); higher = more stable
- condition details: treatment: DMSO; c terminus: a fixed tail appended
Param threshold (4) applies to protein stability index; output Criterion met when value >= threshold, Criterion not met when value < threshold.

[in] Form field: protein stability index at least 4? Entry: QRPFIRMSWEKEEGKSRHVDFQCV [BTBD10]
[out] Criterion not met

[in] Form field: protein stability index at least 4? Entry: MAPLQPSTSRAHKLPSRRQPGLLH [FAM189A2]
[out] Criterion not met

[in] Form field: protein stability index at least 4? Entry: IYGHVTLMRAQRNYMVQTEDQYIF [PTPRD]
[out] Criterion not met

[in] Form field: protein stability index at least 4? Entry: PQDSGTAAWKGRVLLPETQKRQQL [C22orf31]
[out] Criterion met

[in] Form field: protein stability index at least 4? Entry: TIVTDVFQGSMRIFTKKLPHPDLP [USP39]
[out] Criterion not met

[in] Form field: protein stability index at least 4? Entry: FELEDSNEIFTQLYRTLFSVINNG [PDS5B]
[out] Criterion not met

[in] Form field: protein stability index at least 4? Entry: SSLSSESSESSDAGLCMDSPSPMD [CDC25B]
[out] Criterion met

[in] Form field: protein stability index at least 4? Entry: LEPPEEEIIEGNTKSHIMLVQRQM [NECAB1]
[out] Criterion met

[in] Form field: protein stability index at least 4? Entry: RVMMASASDYFKAMFTGGMKEQDL [KLHL13]
[out] Criterion not met

[in] Form field: protein stability index at least 4? Entry: YNMAPSALDSADLPPPSALKKGSK [NFE2L1]
[out] Criterion met

[in] Form field: protein stability index at least 4? Entry: GANKEVQELLERGLLQLDHRGLRC [RSAD1]
[out] Criterion not met

[in] Form field: protein stability index at least 4? Entry: NTKRAIHTLAVMNDRLYAIGGNHL [KLHL14]
[out] Criterion not met

[in] Form field: protein stability index at least 4? Entry: PKLREETAHMLGVRELRIAFREFD [CABP4]
[out] Criterion not met

[in] Form field: protein stability index at least 4? Entry: VLLIKDRTSKSRGFAFITFENPAD [RBMY1A1]
[out] Criterion not met

[in] Form field: protein stability index at least 4? Entry: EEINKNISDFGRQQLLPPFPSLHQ [EHMT1]
[out] Criterion not met

[in] Form field: protein stability index at least 4? Entry: LCDKLPPATALGTASYPSDGCGAD [NOL4L]
[out] Criterion met

[in] Form field: protein stability index at least 4? Entry: DDDAEEEGPKRELGVRRPGGAGKE [TCF25]
[out] Criterion met

[in] Form field: protein stability index at least 4? Entry: KEQLSNDRETQEGKPPTAHLDRTS [ELOA2]
[out] Criterion met

[in] Form field: protein stability index at least 4? Entry: LDLSKNKLQQLPADFGRLVNLQHL [LRRC59]
[out] Criterion not met

[in] Form field: protein stability index at least 4? Entry: RSLEELTRLAFELFAEEQAEGPNR [LPCAT4]
[out] Criterion not met

[in] Form field: protein stability index at least 4? Entry: AEDLRMLDASGEKMNGSHRDQGSS [IKZF1]
[out] Criterion met

[in] Form field: protein stability index at least 4? Entry: EVCYEDLGCFSDTEPWGGTAIRPL [PNLIPRP1]
[out] Criterion not met

[in] Form field: protein stability index at least 4? Entry: KKLTGGANWQPKVAPATWSAGVPP [SNAP91]
[out] Criterion not met

[in] Form field: protein stability index at least 4? Entry: RTFLETSTDTAVTNEWEKRLSTSP [EPB41L3]
[out] Criterion met

[in] Form field: protein stability index at least 4? Entry: QEGSSGMELSWGQSPGQPVQGGSE [TEX19]
[out] Criterion met

[in] Form field: protein stability index at least 4? Entry: GPEPPPVYTNLSSYSPASASSGGA [JUNB]
[out] Criterion met

[in] Form field: protein stability index at least 4? Entry: VDGDQSKILISGLEPSTPYRFLLY [TNXB]
[out] Criterion not met

[in] Form field: protein stability index at least 4? Entry: LASIFQLAMWTTALLHQAETLQPS [TMEM175]
[out] Criterion not met

[in] Form field: protein stability index at least 4? Entry: NFGLRLVVQRCSGQKWMIRNWIKH [GALNT9]
[out] Criterion not met

[in] Form field: protein stability index at least 4? Entry: VLMWTMLFLGQGIQVSLYCQEWYA [SOAT2]
[out] Criterion not met

[in] Form field: protein stability index at least 4? Entry: EGGGTSLHVACELARPECLFLLLG [ANKRD9]
[out] Criterion not met

[in] Form field: protein stability index at least 4? Entry: MEKGPVRAPAEKPRGARCSNGFPE [GCH1]
[out] Criterion met

[in] Form field: protein stability index at least 4? Entry: QIPVTDSGRHILEDSCAELGESKE [SDE2]
[out] Criterion met

[in] Form field: protein stability index at least 4? Entry: SEPYKLLPGAVATIVKPLSAIPQP [HNF4A]
[out] Criterion not met

[in] Form field: protein stability index at least 4? Entry: QLDREAQARHQLVLTAVDGGTPAR [PCDHGC5]
[out] Criterion met

[in] Form field: protein stability index at least 4? Entry: DYRQEQPETFWIQRAPQLPTWWPL [SPAG8]
[out] Criterion not met

[in] Form field: protein stability index at least 4? Entry: HRQETVECLKKFNARRKLKGAILT [CAMK2B]
[out] Criterion not met

[in] Form field: protein stability index at least 4? Entry: SVGDPCGGAICGGPDHRLRLWRLF [SLC25A25]
[out] Criterion not met

[in] Form field: protein stability index at least 4? Entry: LGLLDDYLEVAKHFKPHGFSSDKA [ATF4]
[out] Criterion not met
